targetOrTestSystem: C-terminal-binding protein 1 (Homo sapiens) (UniProt Q13363)
testSummary: qHTS for Inhibitors of the Phosphatase Activity of Eya2: Carboxyl-terminal binding protein (CtBP) Counterscreen for Cherry-picked Compounds; further: nearly all actives have a fitted effect of over 65% in size; further: potency means the concentration at half of the fitted maximal effect
measurementContext: purified protein-protein binding, AlphaScreen, 3 h; series mostly up to 46.1 µM
Out of some 1,300 compounds screened, about 420 (32%) were called active. About 32% were inconclusive and are not listed. This is one part of the list.
measuredQuantity: Potency

molecule	assayValue
CN(C)c1ccc(/C=C2\C=Cc3ccccc32)c(Cl)c1	8.49 µM (active)
CCOC(=O)N1CCC(NC(=O)c2cc3c(-c4ccccc4F)nn(C)c3s2)CC1	inactive
O=S(=O)(NCCSCc1ccc(Cl)c(Cl)c1)c1ccc2c(c1)OCCO2	inactive
Cn1c(=O)n(Cc2ccc(F)cc2)c(=O)c2c1nc1n2CCN1Cc1ccco1	10.7 µM (active)
CCc1ccc(-c2csc(NC(=O)C3CC(=O)N(c4ccc5c(c4)OCCO5)C3)n2)cc1 (stereo not given)	inactive
O=C(CCCl)Nc1cccc2cccnc12	8.49 µM (active)
Cn1c(=O)n(Cc2ccccc2)c(=O)c2c1nc(NCC1CCCO1)n2Cc1ccccc1 (stereo not given)	inactive
Cc1c(CC(=O)N[C@@H](C)C(=O)O)c(=O)oc2cc3occ(-c4ccccc4)c3cc12	6.75 µM (active)

Q: Quickly give me recorded Potency for O=C1c2cccc(Sc3ccccc3)c2C(=O)c2c(Sc3ccccc3)cccc21
A: 3.79 µM (active)

Q: Quickly give me recorded Potency for Cc1oc(-c2ccc(-c3ccccc3)cc2)nc1CN(C)C1CCOC1 (stereo not given)
A: inactive

Q: Quickly give me recorded Potency for Cc1cc(C(=O)c2ccccc2)cc(C)c1O
A: inactive

Q: Quickly give me recorded Potency for COCCNC(=O)c1cccc(OC2CCN(Cc3ccc(F)cc3OC)CC2)c1
A: inactive

Q: Quickly give me recorded Potency for O=C(O)c1ccc(CSc2nc3ccccc3c(=O)n2-c2ccccc2)cc1
A: inactive

Q: Quickly give me recorded Potency for COc1cc(N(C)C)ccc1/C=C1\C=Cc2ccccc21
A: 8.49 µM (active)

Q: Quickly give me recorded Potency for O=C1/C(=C/c2ccco2)SC(=S)N1c1cccnc1
A: 15.1 µM (active)

Q: Quickly give me recorded Potency for O=c1c2ccccc2c(C=Nc2cccc(S(=O)(=O)NC3=NCCCCC3)c2)c(O)n1Cc1ccccc1
A: inactive

Q: Quickly give me recorded Potency for CCc1ccc2nc(N(CCN(C)C)C(=O)c3ccc4ncsc4c3)sc2c1
A: inactive

Q: Quickly give me recorded Potency for S=C(NC1CC1)NC1CCCc2ccccc21 (stereo not given)
A: inactive

Q: Quickly give me recorded Potency for Cc1c(CC(=O)NCCCC(=O)O)c(=O)oc2cc3occ(-c4ccccc4)c3cc12
A: 13.5 µM (active)

Q: Quickly give me recorded Potency for Cc1ccc(S(=O)(=O)Nc2c(C)n(C)n(-c3ccccc3)c2=O)cc1C(=O)OC(C)C(=O)N(C)c1ccccc1 (stereo not given)
A: inactive

Q: Quickly give me recorded Potency for COc1ccc(Cl)cc1NC(=O)CCCn1c(=O)c2cccn2c2cccnc21
A: inactive

Q: Quickly give me recorded Potency for NCC(=O)Nc1ccc(Cl)cc1C(=O)c1ccc[nH]1
A: inactive

Q: Quickly give me recorded Potency for Cc1ccc2cc(NC(=O)CC(CC(=O)O)c3ccccc3)ccc2n1 (stereo not given)
A: 15.1 µM (active)

Q: Quickly give me recorded Potency for CC(=O)Nc1ccc(S(=O)(=O)Nc2cccc3cccnc23)cc1
A: 4.26 µM (active)

Q: Quickly give me recorded Potency for COc1cc(N(C)C)c(OC)cc1/C=C1\C=Cc2ccccc21
A: 5.36 µM (active)

Q: Quickly give me recorded Potency for CC(C)OCCCNC(=O)c1ccccc1NC(=O)C1=CSCCO1
A: inactive

Q: Quickly give me recorded Potency for C=C(C)COc1ccc(-c2nc(N)nc(C)c2-c2ccc(OC)cc2)c(O)c1
A: 6.01 µM (active)
